# key: entry, value: clearance
# procedure-summary: Clearance in rat at 0.5 mg/kg, iv or 1 mg/kg, po
# Assay type: ADME, organism-based
# study-conditions: in vivo

{"query-smiles": "Cc1c([C@H](O)CN2CCN(C[C@@H](O)c3ccc4c(c3C)COC4=O)CC2)ccc2c1COC2=O", "clearance": "82 mL/min/kg"}
{"query-smiles": "Cc1c([C@H](O)CN2CCN(C[C@H](O)c3ccc4c(c3C)COC4=O)CC2)ccc2c1COC2=O", "clearance": "54 mL/min/kg"}

###

Measured Vd values are reported for all entries that follow.
# procedure-summary: Volume of distribution at steady state in rat at 0.5 mg/kg, iv or 1 mg/kg, po
# Type: ADME, organism-based
# study-conditions: in vivo, read-out: Vdss

{"query-smiles": "Cc1c([C@H](O)CN2CCN(C[C@H](O)c3ccc4c(c3C)COC4=O)CC2)ccc2c1COC2=O", "Vd / L/kg": 4.5}
{"query-smiles": "Cc1c([C@H](O)CN2CCN(C[C@@H](O)c3ccc4c(c3C)COC4=O)CC2)ccc2c1COC2=O", "Vd / L/kg": 5.8}

###

# target-entity: UniProtKB P11712
# Sequence (P11712 whole entry): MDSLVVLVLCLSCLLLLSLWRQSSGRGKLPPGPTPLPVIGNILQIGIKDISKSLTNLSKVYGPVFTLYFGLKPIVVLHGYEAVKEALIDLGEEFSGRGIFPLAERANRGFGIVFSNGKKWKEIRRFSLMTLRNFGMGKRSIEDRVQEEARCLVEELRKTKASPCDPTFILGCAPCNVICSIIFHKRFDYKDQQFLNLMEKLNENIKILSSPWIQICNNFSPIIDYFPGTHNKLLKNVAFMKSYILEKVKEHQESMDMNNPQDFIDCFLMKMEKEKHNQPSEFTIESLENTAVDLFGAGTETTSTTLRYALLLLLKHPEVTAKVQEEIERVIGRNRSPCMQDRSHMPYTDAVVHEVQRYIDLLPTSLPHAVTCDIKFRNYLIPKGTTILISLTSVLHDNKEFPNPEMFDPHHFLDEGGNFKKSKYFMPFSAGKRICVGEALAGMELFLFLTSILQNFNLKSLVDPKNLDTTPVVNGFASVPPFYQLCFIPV

{"compound": "Cc1c([C@@H](O)CN2CCN(C[C@H](O)c3ccc4c(c3C)COC4=O)CC2)ccc2c1COC2=O [MK-7145]", "IC50": "> 50 µM"}

###

# procedure-summary: Clearance in dog at 1 mg/kg, iv or 2 mg/kg, po
# Format: ADME, organism-based, Canis lupus familiaris
# study-conditions: in vivo

{"query-smiles": "Cc1c([C@@H](O)CN2CCN(C[C@H](O)c3ccc4c(c3C)COC4=O)CC2)ccc2c1COC2=O", "clearance": "56 mL/min/kg"}

###

# procedure-summary: Drug metabolism in dog hepatocytes assessed as glucuronidation at 1 uM measured at 120 mins
# Type: ADME, cell-based, Canis lupus familiaris, Hepatocyte
# study-conditions: read-out: Drug metabolism

{"query-smiles": "Cc1c([C@@H](O)CN2CCN(C[C@H](O)c3ccc4c(c3C)COC4=O)CC2)ccc2c1COC2=O", "metabolised at 2 h, 1 µM": "< 1%"}

###

# procedure-summary: Volume of distribution at steady state in rhesus monkey at 1 mg/kg, iv or 2 mg/kg, po
# Format: ADME, organism-based, Macaca mulatta
# study-conditions: in vivo, read-out: Vdss

{"query-smiles": "Cc1c([C@@H](O)CN2CCN(C[C@H](O)c3ccc4c(c3C)COC4=O)CC2)ccc2c1COC2=O", "Vd / L/kg": 6.7}

###

Reported half-life by item:
# procedure-summary: Half life in rat at 1 mg/kg, iv or 2 mg/kg, po
# Type: ADME, organism-based
# study-conditions: in vivo

{"molecule": "Cc1c(C(F)CN2CCN(C(=O)Cc3ccc(-n4cnnn4)cc3)CC2)ccc2c1COC2=O (configuration not stated)", "units": "min", "half-life": 21}
{"molecule": "Cc1c([C@@H](O)CN2CCN(C[C@H](O)c3ccc4c(c3C)COC4=O)CC2)ccc2c1COC2=O", "units": "min", "half-life": 66}

###

Listing of recorded IC50 by entry.
# target-entity: UniProt:Q12809
# Sequence (Q12809 whole entry): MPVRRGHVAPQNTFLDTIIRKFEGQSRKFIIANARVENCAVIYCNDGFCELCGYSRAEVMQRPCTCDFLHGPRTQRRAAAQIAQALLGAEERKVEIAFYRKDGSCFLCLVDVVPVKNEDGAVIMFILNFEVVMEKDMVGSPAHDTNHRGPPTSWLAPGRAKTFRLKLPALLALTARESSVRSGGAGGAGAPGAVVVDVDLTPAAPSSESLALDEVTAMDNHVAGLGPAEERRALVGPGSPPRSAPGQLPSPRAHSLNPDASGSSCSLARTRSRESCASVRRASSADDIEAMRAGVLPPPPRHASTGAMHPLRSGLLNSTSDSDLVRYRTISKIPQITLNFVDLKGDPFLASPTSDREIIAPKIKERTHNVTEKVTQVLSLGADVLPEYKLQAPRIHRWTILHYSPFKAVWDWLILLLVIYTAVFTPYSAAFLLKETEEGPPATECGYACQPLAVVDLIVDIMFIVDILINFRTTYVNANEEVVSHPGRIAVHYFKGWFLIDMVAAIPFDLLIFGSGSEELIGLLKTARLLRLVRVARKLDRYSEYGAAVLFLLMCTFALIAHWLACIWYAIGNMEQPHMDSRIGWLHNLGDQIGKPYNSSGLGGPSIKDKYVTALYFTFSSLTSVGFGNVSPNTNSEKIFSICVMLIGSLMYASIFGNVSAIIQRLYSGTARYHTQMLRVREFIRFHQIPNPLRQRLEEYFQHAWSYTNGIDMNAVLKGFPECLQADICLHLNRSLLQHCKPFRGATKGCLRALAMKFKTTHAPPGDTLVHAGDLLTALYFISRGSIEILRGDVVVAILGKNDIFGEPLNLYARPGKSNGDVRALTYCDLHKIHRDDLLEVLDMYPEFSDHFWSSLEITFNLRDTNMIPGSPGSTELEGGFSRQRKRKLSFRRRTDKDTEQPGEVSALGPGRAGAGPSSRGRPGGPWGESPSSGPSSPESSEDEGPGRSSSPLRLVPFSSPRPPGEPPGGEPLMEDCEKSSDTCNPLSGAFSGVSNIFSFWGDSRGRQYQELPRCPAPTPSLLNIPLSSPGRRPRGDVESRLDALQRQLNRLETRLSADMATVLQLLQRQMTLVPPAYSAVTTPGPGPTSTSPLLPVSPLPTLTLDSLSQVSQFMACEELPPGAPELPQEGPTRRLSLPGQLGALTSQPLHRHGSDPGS
# procedure-summary: Inhibition of human ERG after 6 mins by electrophysiological assay

{"compound": "Cc1c(C(O)CN2CCN(CC(O)c3ccc4c(c3C)COC4=O)CC2)ccc2c1COC2=O (stereo not given)", "units": "µM", "limit-qualifier": "=", "IC50": 28}
{"compound": "Cc1c([C@H](O)CN2CCN(C[C@H](O)c3ccc4c(c3C)COC4=O)CC2)ccc2c1COC2=O", "units": "µM", "limit-qualifier": ">", "IC50": 30}
{"compound": "Cc1c(C(F)CN2CCN(CC(F)c3ccc4c(c3C)COC4=O)CC2)ccc2c1COC2=O (stereo not given)", "units": "µM", "limit-qualifier": ">", "IC50": 90}
{"compound": "Cc1c([C@@H](O)CN2CCN(C[C@H](O)c3ccc4c(c3C)COC4=O)CC2)ccc2c1COC2=O [MK-7145]", "units": "µM", "limit-qualifier": "=", "IC50": 22}
{"compound": "Cc1c([C@H](O)CN2CCN(C[C@@H](O)c3ccc4c(c3C)COC4=O)CC2)ccc2c1COC2=O", "units": "µM", "limit-qualifier": "=", "IC50": 22}
